Test system: ATP;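 further: ATP exposure 15 min at 22 °C before imaging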
Assay: switch fluorescence ratio, 500 uM ATP over buffer (Cy3 cluster intensity, sum of 5 cycles each) (fold (ratio)); higher = stronger signal-on switching upon ATP binding; sequences stand for … in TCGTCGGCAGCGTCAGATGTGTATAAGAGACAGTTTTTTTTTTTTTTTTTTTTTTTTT…TC
Conditions: aptamer strand: ATP DNA aptamer (quencher-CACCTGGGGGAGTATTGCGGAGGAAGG + anchor), 100 nM annealed; ATP concentration: 500 uM
Assignment: determine reported switch fluorescence ratio for the given sequences.
Answers are plain numbers.

The following sequences have reported results that may help.
>>> measured_value("TATGTTATGT")
1.01
>>> measured_value("ACGGGATGTG")
0.978
>>> measured_value("ATAGGTGTTG")
1.02

Please state, for each entry, its recorded switch fluorescence ratio.
1. GGGAGGAAGA
2. TTTTCGCCAC
3. ACACTCACCC
4. GCCTTATATA
5. AACCCGTTTC
6. AAAAGCGGTA

Result:
1. 1.01
2. 2.35
3. 1.57
4. 0.995
5. 1.09
6. 1

Please state, for each entry, its recorded switch fluorescence ratio.
1. TTTGCCGGGG
2. TTAAATTACC
3. AGTTCCCCTT
4. ACGGATGTTT
5. AGGGGATTCA

Result:
1.02
1.05
1.05
0.997
1.02

Please state, for each entry, its recorded switch fluorescence ratio.
1. TTTTTAATCC
2. CGGTCCCTGC
3. ATACTCAGCC

Result:
[1.05, 1.01, 1.14]

###

System: ATP;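 further: ATP exposure 15 min at 22 °C before imaging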
Experiment: switch fluorescence ratio, 500 uM ATP over buffer (Cy3 cluster intensity, sum of 5 cycles each) (fold (ratio)); higher = stronger signal-on switching upon ATP binding; sequences stand for … in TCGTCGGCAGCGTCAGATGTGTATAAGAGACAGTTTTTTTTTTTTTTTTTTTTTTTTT…TC
Settings: aptamer strand: ATP DNA aptamer (quencher-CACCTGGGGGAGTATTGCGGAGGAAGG + anchor), 100 nM annealed; ATP concentration: 500 uM
Measurement Label: switch fluorescence ratio
Numbers only.

The following sequences have reported results that may help.
>>> measured_value("TGTGGCGCCA")
0.987
>>> measured_value("GGGGGAGCTA")
1

Please state, for each entry, its recorded switch fluorescence ratio.
1. TTGTTATTTA
2. CAATTCGCTA
3. AATAGCATGG
4. GGGATTATTA

Result:
1: 0.99; 2: 1.21; 3: 1.03; 4: 0.981

###

Assignment: determine reported switch fluorescence ratio for the given sequences.
System: ATP;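 further: ATP exposure 15 min at 22 °C before imaging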
Experiment: switch fluorescence ratio, 500 uM ATP over buffer (Cy3 cluster intensity, sum of 5 cycles each) (fold (ratio)); higher = stronger signal-on switching upon ATP binding; sequences stand for … in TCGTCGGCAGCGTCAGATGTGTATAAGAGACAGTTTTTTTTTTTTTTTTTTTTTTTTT…TC
Details: aptamer strand: ATP DNA aptamer (quencher-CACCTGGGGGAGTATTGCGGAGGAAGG + anchor), 100 nM annealed; ATP concentration: 500 uM
One number for each entry.

The following sequences have reported results that may help.
>>> measured_value("CGTTTGGGGA")
0.99
>>> measured_value("GGGGGAGTCC")
0.985
>>> measured_value("CGGTCGGGGG")
0.999
>>> measured_value("CGGGGGTACA")
1.02
>>> measured_value("TGCAAAAAGG")
1.03

Please state, for each entry, its recorded switch fluorescence ratio.
1. ATCTTATCGT
2. TAGGCAATCT
3. TTCTGTAGCG
4. GGGTTAACGT
5. TGGGGGGCAG

Result:
1: 0.982; 2: 1.25; 3: 1.06; 4: 0.987; 5: 0.969

###

Assignment: determine reported switch fluorescence ratio for the given sequences.
Tested on: ATP;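 further: ATP exposure 15 min at 22 °C before imaging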
Assay: switch fluorescence ratio, 500 uM ATP over buffer (Cy3 cluster intensity, sum of 5 cycles each) (fold (ratio)); higher = stronger signal-on switching upon ATP binding; sequences stand for … in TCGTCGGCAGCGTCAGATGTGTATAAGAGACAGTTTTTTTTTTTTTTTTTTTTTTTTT…TC
Conditions: aptamer strand: ATP DNA aptamer (quencher-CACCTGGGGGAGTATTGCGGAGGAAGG + anchor), 100 nM annealed; ATP concentration: 500 uM
Give bare numbers.

The following sequences have reported results that may help.
>>> measured_value("ATGTAAAGCA")
1.02
>>> measured_value("GATGTGAGCC")
1.01
>>> measured_value("TTGATAAAAA")
0.998
>>> measured_value("TCAGATAAAT")
1.27
>>> measured_value("CATAGGGGCG")
0.984
>>> measured_value("ATTATGGCGT")
0.999
>>> measured_value("TGTACTATGC")
1.06
>>> measured_value("AGGAATCAAG")
0.997
>>> measured_value("TAGAACGGGG")
0.998
>>> measured_value("GAGGTGGTTA")
0.976

Please state, for each entry, its recorded switch fluorescence ratio.
1. GAGCTACTGA
2. TCGGTCATGG
3. TTTTACGCTG
4. GGGGGGTTTC
5. TAAAGATGG
6. TTATTACGTG
7. TAAGCTTACA
8. TGGTAATGGG

Result:
1.01
0.993
1
1.1
0.995
1.01
1.04
1.01

###

Test system: ATP;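 further: ATP exposure 15 min at 22 °C before imaging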
Assay: switch fluorescence ratio, 500 uM ATP over buffer (Cy3 cluster intensity, sum of 5 cycles each) (fold (ratio)); higher = stronger signal-on switching upon ATP binding; sequences stand for … in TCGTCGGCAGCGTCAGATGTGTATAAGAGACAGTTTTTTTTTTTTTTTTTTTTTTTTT…TC
Settings: aptamer strand: ATP DNA aptamer (quencher-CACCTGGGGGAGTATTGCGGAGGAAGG + anchor), 100 nM annealed; ATP concentration: 500 uM
Measurement Label: switch fluorescence ratio
Give bare numbers.

>>> measured_value("TGGTGGAGTC")
1.02

Please state, for each entry, its recorded switch fluorescence ratio.
1. TTTCCCGGAT
2. GCATTTTTTC
3. CGGGGTGTTA
4. GCTTCAAGGC
5. ACGTGATTTT
6. AATTGTGATG
7. TTATTTTAAA
8. TCCGATTTGT

Result:
1.1
1.03
1.07
1.03
1.09
1.01
1.01
1.02

Query: Returns the measured switch fluorescence ratio for the input sequence. Input: "CGCGGACACG"
Result: 1.01

###

Test system: ATP;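 further: ATP exposure 15 min at 22 °C before imaging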
Experiment: switch fluorescence ratio, 500 uM ATP over buffer (Cy3 cluster intensity, sum of 5 cycles each) (fold (ratio)); higher = stronger signal-on switching upon ATP binding; sequences stand for … in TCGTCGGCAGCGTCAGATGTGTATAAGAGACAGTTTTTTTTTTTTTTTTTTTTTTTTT…TC
Conditions: aptamer strand: ATP DNA aptamer (quencher-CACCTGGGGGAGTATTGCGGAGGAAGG + anchor), 100 nM annealed; ATP concentration: 500 uM
Satisfied means recorded switch fluorescence ratio is 1 or above; Not satisfied means it is below 1.

As a guide, the following entries are already answered.
>>> group("TGTGATTGTG")
"Not satisfied"
>>> group("TATTTCTTTT")
"Satisfied"

Query: Confirm if switch fluorescence ratio reported for the sequence "GGGAGAATTA" is 1 or above.
Result: Satisfied

Query: Another sequence to look at: "GATTGGGGGC"
Result: Satisfied

Query: Another sequence to look at: "TTATATGTTA"
Result: Satisfied

Query: Another sequence to look at: "GAATTAAATG"
Result: Satisfied

Query: Another sequence to look at: "ATGCAATCAT"
Result: Satisfied

Query: Another sequence to look at: "CAAAAGACGG"
Result: Satisfied

Query: Another sequence to look at: "TAATAGTTT"
Result: Satisfied

Query: Another sequence to look at: "ACGCCAGCTA"
Result: Satisfied

Query: Another sequence to look at: "GCGGGTTACT"
Result: Satisfied

###

Test system: ATP;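 further: ATP exposure 15 min at 22 °C before imaging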
Test: switch fluorescence ratio, 500 uM ATP over buffer (Cy3 cluster intensity, sum of 5 cycles each) (fold (ratio)); higher = stronger signal-on switching upon ATP binding; sequences stand for … in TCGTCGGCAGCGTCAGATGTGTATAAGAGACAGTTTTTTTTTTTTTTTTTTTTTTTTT…TC
Conditions: aptamer strand: ATP DNA aptamer (quencher-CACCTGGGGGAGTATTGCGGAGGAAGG + anchor), 100 nM annealed; ATP concentration: 500 uM
Measurement Label: switch fluorescence ratio
Numbers only.

The following sequences have reported results that may help.
>>> measured_value("TCTTGTCGTT")
1.02
>>> measured_value("GCAGGGAGGG")
1
>>> measured_value("GGACTAGGAG")
1.05
>>> measured_value("GAGGTTACGC")
0.988
>>> measured_value("GGAATCCATG")
0.977

Please state, for each entry, its recorded switch fluorescence ratio.
1. TTTAAAATGT
2. AGGCGATAAT
3. TAGAAAATAA
4. ATGTGGCCGG
5. GGGGACGGGG

Result:
1: 1.12; 2: 1.12; 3: 0.995; 4: 0.997; 5: 1
